- experiment: soluble fraction after stress (log2 fold change); higher = more stays soluble; pooled small domains, quantitative proteomics
- assay-conditions: stress: pH 4
Decide using soluble fraction (log2): a value greater than or equal to -0.3 is 1, a smaller one is 0.

Some solved cases for reference:
HMKRVTRQRTEILRVIDESERPLGPQEILQAGREAIPSLSIATIYRTLRDLLAEELIKTVALPGDSPRYES ... 1
HMHYALTVDFPAALEARIDPAHRAALRGVLAHDPRPSYQSDPERLYGVAFAGKNVKFTVEDGVLTVRKIEE ... 1
HMKSEIRKKNSQIILDAAEHEFSVHGYRGTSVQMIADRSGLPKANLHYYYKSKSALYGAVLDRIL ... 1
HMNIVVSSIDSNSFEIVNKETGEQAVISYDKETKKGFVLINGVKKEFFQDGNKVYYDGYVIAE ... 0
HMLAGKTYEVQTESGGKWTLVASYNVKSQAIQQAQALLESHKYSGVKVIAESDRKGEEVIFNEQSEVT ... 1
HMFPTLNEDEQTIVSALQKINDQPINTLSIHTALPIPRLTSLLFQLEIKGVIKQLAGGTYHVL ... 1

Now look at this entry.
q: Is it the case that "HMQIKNVDYGTFLDMLDEKNVKEVEIEDEQIVFTDNADPTGYYTTGRMEDPDLVDRLHNSGATFSAI" has soluble fraction (log2) reaching or exceeding -0.3?
a: 0

---

- experiment: soluble fraction after stress (log2 fold change); higher = more stays soluble; pooled small domains, quantitative proteomics
- assay-conditions: stress: pH 4
readout: soluble fraction (log2)
Would you mind answering with just the numeric figure?

q: So what's the measured soluble fraction (log2) for this one? "HMVVTMEKIVVNDGGIRIDTYLADKLNISRSKVAKMLENNILVNNVKVKPSYKVTNNDIIEVEEYV"
a: 0.402

---

- experiment: soluble fraction after stress (log2 fold change); higher = more stays soluble; pooled small domains, quantitative proteomics
- assay-conditions: stress: pH 4
Decide using soluble fraction (log2): a value greater than or equal to -0.1 is criterion met, a smaller one is criterion not met.

q: Is it the case that "HMQMSDTSMIRDLVLQVLAENPQSIEDFKNGKDRAVGFLVGMVMKKSQGKANPQITNQMIVEELKK" has soluble fraction (log2) reaching or exceeding -0.1?
a: criterion not met

q: Is it the case that "HMPTTLEGIEKYLSSGLIKGIGPHLAGKLVEAFGTRVFEVVEHQPERLRTVGGIGRTRAESITSAWRDQ" has soluble fraction (log2) reaching or exceeding -0.1?
a: criterion not met

q: Is it the case that "HMIMQTTSDRINQRMRDLGLQHKDLVAATGASKGTVTNWINGVNNPTGKRLVQLAQALKTTSSWLLTGN" has soluble fraction (log2) reaching or exceeding -0.1?
a: criterion met

q: Is it the case that "HMANSDEEVLNKISTKAPTFNELINKIKEFDDTKEINDIWLDVYRYYITDEEYKEIAKKVITGLTYTNQ" has soluble fraction (log2) reaching or exceeding -0.1?
a: criterion not met

q: Is it the case that "HMLSTRERMSSLMAQLQVQQFMPFHRLFTISEGRMGVIVTFLAMMELVKENLIKLIQAQEYGPIHVSLG" has soluble fraction (log2) reaching or exceeding -0.1?
a: criterion met

---

- experiment: soluble fraction after stress (log2 fold change); higher = more stays soluble; pooled small domains, quantitative proteomics
- assay-conditions: stress: pH 4
Decide using soluble fraction (log2): a value greater than or equal to -0.2 is 1, a smaller one is -1.

Some solved cases for reference:
HMTVKEYNRAVDEYSDAVWRFIRGNLRDEDRANDIVQDSFEKLWMHVTEIDYSVAKSWLFSTAYNNMIDI ... -1
HMTRHIQVNDSIASTPIEDVYFSTRTYNALLNNGISVIGDLSKYTHDDLYASFQGLGRAGVLEIEAYLRQD ... -1
HMKLRKINLIGIFGSKTAPSALVRLTNGRVLKVGLGELLDGGRVTAIGRSSLTYNKSGKSITLNMPI ... 1
HMQGEKDDLWREVLDNPDAWWDNRERKNAPGGNPRYPDFKHKDSQTPLWIESRDTPQWAIDALL ... -1
HMARAESYGDIARLEQLLDEHANIAALDPGKLPAVRQQIWTLMRAARMDHDLGLAERPEDDSFDDMLLHV ... 1

q: Is it the case that "HMQDGVNLENIEQKLSTLGVGKAQYFLQNVGGNKFNAYMALNTDGVEGYQKGSDTLIEIKNVE" has soluble fraction (log2) reaching or exceeding -0.2?
a: 1

q: Is it the case that "HMDKSPMIGTAEYEGVLYWRQTKDNGATWEWITDKNGDKMPVSGPAPAVGIDKDGYWTVNGESTGVLAKD" has soluble fraction (log2) reaching or exceeding -0.2?
a: 1

q: Is it the case that "HMSHISLGQRYKIEGYLQINLKRTQIAKEIGLPKKTVNQEIKRNSNPQTGIYKAEEAHQLYLDRMQKKRK" has soluble fraction (log2) reaching or exceeding -0.2?
a: 1

q: Is it the case that "HMKGPAFAKIDLTQLPAGLTSFLNTNAAGFKLDYAVAITKDSVIIEYHVGVTIGTAKKEFHLDPNFQLLP" has soluble fraction (log2) reaching or exceeding -0.2?
a: 1

---

Measured soluble fraction (log2), listed per entry for reference.
- experiment: soluble fraction after stress (log2 fold change); higher = more stays soluble; pooled small domains, quantitative proteomics
- assay-conditions: stress: pH 4
Would you mind answering with just the numeric figure?

// worked examples, soluble fraction (log2) included
HMPDLSMLDEVLDEYRSQAGSLVTVLQKAQDLYGYLPLTILRHIAEEMNIKPAQVYGVATFYTQFRL ... -0.866
HMGIAFDYDAGRFDQVPPNLVEKWQQAYPAVDVLSELRRMEAWASANPVNRKSNWQRFIVNWLTRAQDRAG ... -0.16
HMATTPEETILEYINKNNRISKQEIADLMGITRDGVSYHIKKLRKNGLLEWIGSPSNGHWEIIE ... -0.52

q: So what's the measured soluble fraction (log2) for this one? "HMRENAARNRNVNLDIGETLRVDAWSPERRARVQYRGAAWDVELAPNAPATVGEFRIVEVRGNVLVVTP"
a: -0.0451

q: So what's the measured soluble fraction (log2) for this one? "HMYDPVNEIGRVLKKIRQERSLTLDNVAEITGVSKTMLGQIERGVSVPTISVLWKIAKGLQVSLSTLLNE"
a: 0.36

q: So what's the measured soluble fraction (log2) for this one? "HMSHSDMEEWTDAVRSRRKKLGLTQVQIARRLGVTSHHFSQIESGRTIPSASLQIEIDRLLKNWND"
a: 0.0462

q: So what's the measured soluble fraction (log2) for this one? "HMDEDLQEALRKLNPIQANERKLLLKMLEQHRWNVSSVAKAFDVSRNTLYRRLHKLHIPLSNPSE"
a: 0.172

q: So what's the measured soluble fraction (log2) for this one? "HMNPAYTDSRMKTFLEELPVMKASLSQKHVTRFLVWQEYIGRHPDGYGKSQFFYHLKQNLVAAKG"
a: 0.0452

---

Measured soluble fraction (log2), listed per entry for reference.
- experiment: soluble fraction after stress (log2 fold change); higher = more stays soluble; pooled small domains, quantitative proteomics
- assay-conditions: stress: pH 4
Would you mind answering with just the numeric figure?

// worked examples, soluble fraction (log2) included
HMRPEKLVLKALRGAHGPLSAEEVAGRIEADGGAGLDVARVEHVLGQLERSGTVAALGGGKYLALR ... 0.123
HMTVVSVDDQASASSEAIRTKVAGDSAARMSVDAGGKITWGAGSASGDVTLYRSAANTLKTDDTLVAT ... 0.109
HMNETNKMPNLVNQTDSSAIAQLNAMELGLKITTKEESSETVLAGYVIRTEPAADTELTKNQAVTVYVS ... 0.0693
HMTNADRYIGQEATVTEKISNELSTGAVRIGGLVWTARTVDNSEAEEGERVTVEAIEGAKLLVKRR ... -0.0323

q: So what's the measured soluble fraction (log2) for this one? "HMGNHMSFKMWGEQLQEAFRALETYDTQKAKTILNELVRFPIDSDITKALKGIISNIDDMMA"
a: -0.721

q: So what's the measured soluble fraction (log2) for this one? "HMRGFGYVRRLPSKRYQASYAGPDLQRHVAPTTFTTKADAESWLGAERKVVESGSWRPPAVREAEARLS"
a: 0.412

q: So what's the measured soluble fraction (log2) for this one? "HMEHIEVDTSHIAVGSKVKHKAFGLGEITDKGNTYVFVKFDGQAIPKKFQFPGAFTQGFLTK"
a: 0.154

q: So what's the measured soluble fraction (log2) for this one? "HMVNVLKNSTVIDLVKNNLSDALIISLIRRAKVDFSLMTDDVIELSGKGVSPAVIMEMRQAMIRQASEIQN"
a: -0.183

---

- experiment: soluble fraction after stress (log2 fold change); higher = more stays soluble; pooled small domains, quantitative proteomics
- assay-conditions: stress: pH 4
Decide using soluble fraction (log2): a value greater than or equal to -0.2 is yes (1), a smaller one is no (0).

Some solved cases for reference:
HMGDAIPVPDVSGFSEDQAMNNLRKVGLRPKATYVADDNTAKGYVTGTSPAKNIEVAPDSEVIVYVSSGP ... yes (1)
HMVPSSHNIAQKVKQIKINDLWLDVRERYIYLKNLYLSHPLEKDHPSFIVYVEAVNQIYNQYF ... yes (1)
HMVPQAVQDIKAYLASGALPYIGPATAKKIVAMFGSDALDVIAEHPEQLTAIRGLNEEKANAIHQEFRRQF ... yes (1)
HMGHEALSSKLDEIQGVGKEKRSLLLDHFKTFERIKNASMEELEAVPSLGKNTAKAVFRFFHS ... yes (1)
HMTSLQDLLEELRVIRETLTGSQVLSDMQLFSQLRNLGDIKAALTRMQDNPAAARMVGEVDKLLETMFAS ... no (0)
HMTANDKRNALYRKIEVGRRQLPAMDEVAFRQLLAAEFGVESRKDMSVGQLSRLVNILAEKGAVF ... yes (1)
HMETTVPNVLNHNISTGEILLKENNLNFRIQYIPSNKDEAVGTIINSVPTSGEKVKFGTVVDLKVL ... yes (1)
HMRQNPESFLNHKVKKNESLESLTKKYELTENEIIFYNPLIQKIGLKKRMILKIPIYNNQNLVTKSVD ... yes (1)
HMVFRFELQPSSATPLYRQIVEQVTRAVAAGVLRDGEELPSVRAVAQEYVINPMTVSKAYSLLEAQSI ... no (0)
HMTKNIIVTTSVKTSDELVEVAKNHALNLELDFNYRNKKTIKELLSSFDGLVVIYKNKISYFEDNSELF ... yes (1)

q: Is it the case that "HMNKTQLQIEDEVLKPLIAEIFSKSKGRFGARKIRSKLMGLGYTASERRILRLMKELGLSSAG" has soluble fraction (log2) reaching or exceeding -0.2?
a: yes (1)

q: Is it the case that "HMAIWAVFYKNEPFNLKSFNSLTSYPGPKYKKTSFSNPGHALNLAKKLNLTFGTEDFQVVKLTQGTIV" has soluble fraction (log2) reaching or exceeding -0.2?
a: yes (1)

q: Is it the case that "HMRKIVEGVLTKKEGKWYLLTDIETYKISDASAEYHKAELNDRASALIPAQNPKVPFASLEKVFN" has soluble fraction (log2) reaching or exceeding -0.2?
a: yes (1)

q: Is it the case that "HMEDELFSVARAAFPEYASKIHMNYGSTVQSIARQSGVLTVSETKQLNENQQISYLEYSNGAVVLALA" has soluble fraction (log2) reaching or exceeding -0.2?
a: no (0)

q: Is it the case that "HMLPEGIENGDVLTRTDALDYRKWLVTGNQKRIFASTASFYGENFNYSEVKAVSDRVLDAIPDGEPV" has soluble fraction (log2) reaching or exceeding -0.2?
a: no (0)
